# Test system: control sera (pooled serum of ten healthy LUMC hospital workers; commercial negative donor pooled serum from the Dutch bloodbank)
# Assay type: binding, human
# Parameters: unit not given here
Where Binding of Control serum Blood-bank to linear peptides equals or exceeds 0.6, the correct label is fulfilled; where it does not, the label is not fulfilled.

QUERY: Please check the record VATEGALNTPKDHIG and state if its Binding of Control serum Blood-bank to linear peptides is at or above 0.6.
RESULT: fulfilled

QUERY: Please check the record IENATFFIFNKLVKD and state if its Binding of Control serum Blood-bank to linear peptides is at or above 0.6.
RESULT: not fulfilled

QUERY: Please check the record AMDPIYDEPTTTTSV and state if its Binding of Control serum Blood-bank to linear peptides is at or above 0.6.
RESULT: fulfilled

QUERY: Please check the record TYQLRARSVSPKLFI and state if its Binding of Control serum Blood-bank to linear peptides is at or above 0.6.
RESULT: fulfilled

QUERY: Please check the record LQTLVLKMLHSSSLT and state if its Binding of Control serum Blood-bank to linear peptides is at or above 0.6.
RESULT: fulfilled

QUERY: Please check the record LKEDYQIGGYSEDRH and state if its Binding of Control serum Blood-bank to linear peptides is at or above 0.6.
RESULT: not fulfilled

----------
# System: control sera (pooled serum of ten healthy LUMC hospital workers; commercial negative donor pooled serum from the Dutch bloodbank)
# Format: binding, human
# Parameters: unit not given here
Exercise: for every item that follows, state its recorded Binding of Control Serum Blood-Bank to Looped peptides.
No unit in the answer, only the number.

QUERY: Indicate the recorded Binding of Control Serum Blood-Bank to Looped peptides value for this sequence: FALTCTSTHFAFACA
RESULT: 0.7

QUERY: Indicate the recorded Binding of Control Serum Blood-Bank to Looped peptides value for this sequence: NIVNVSLVKPTVYVY
RESULT: 0.6

QUERY: Indicate the recorded Binding of Control Serum Blood-Bank to Looped peptides value for this sequence: STPKLKEDYQIGGYS
RESULT: 0.2

QUERY: Indicate the recorded Binding of Control Serum Blood-Bank to Looped peptides value for this sequence: SITAQPVKIDNASPA
RESULT: 0.4

QUERY: Indicate the recorded Binding of Control Serum Blood-Bank to Looped peptides value for this sequence: TTVYHTTVSQIQLSL
RESULT: 0.6

QUERY: Indicate the recorded Binding of Control Serum Blood-Bank to Looped peptides value for this sequence: TSTHFAFACADGTRH
RESULT: 0.8

QUERY: Indicate the recorded Binding of Control Serum Blood-Bank to Looped peptides value for this sequence: ENATFFIFNKLVKDP
RESULT: 0.7

QUERY: Indicate the recorded Binding of Control Serum Blood-Bank to Looped peptides value for this sequence: TDNNQNGGRNGARPK
RESULT: 0.5

QUERY: Indicate the recorded Binding of Control Serum Blood-Bank to Looped peptides value for this sequence: IILFLTLIVFTSCEL
RESULT: 0.7

QUERY: Indicate the recorded Binding of Control Serum Blood-Bank to Looped peptides value for this sequence: SVSPKLFIRQEEVQQ
RESULT: 0.4

QUERY: Indicate the recorded Binding of Control Serum Blood-Bank to Looped peptides value for this sequence: YLYALIYFLQCINAC
RESULT: 0.5

QUERY: Indicate the recorded Binding of Control Serum Blood-Bank to Looped peptides value for this sequence: ANPAMDPIYDEPTTT
RESULT: 0.4

QUERY: Indicate the recorded Binding of Control Serum Blood-Bank to Looped peptides value for this sequence: YRRATRRVRGGDGKM
RESULT: 0.4

QUERY: Indicate the recorded Binding of Control Serum Blood-Bank to Looped peptides value for this sequence: NNQNGGRNGARPKQR
RESULT: 0.5

QUERY: Indicate the recorded Binding of Control Serum Blood-Bank to Looped peptides value for this sequence: LQASLPFGWLVIGVA
RESULT: 0.6

QUERY: Indicate the recorded Binding of Control Serum Blood-Bank to Looped peptides value for this sequence: KLVVILRIGTQVLKT
RESULT: 0.7

QUERY: Indicate the recorded Binding of Control Serum Blood-Bank to Looped peptides value for this sequence: LQCINACRIIMRCWL
RESULT: 0.7

QUERY: Indicate the recorded Binding of Control Serum Blood-Bank to Looped peptides value for this sequence: EVQQELYSPLFLIVA
RESULT: 0.7

QUERY: Indicate the recorded Binding of Control Serum Blood-Bank to Looped peptides value for this sequence: KGQQQQGQTVTKKSA
RESULT: 0.4

QUERY: Indicate the recorded Binding of Control Serum Blood-Bank to Looped peptides value for this sequence: DQIGYYRRATRRVRG
RESULT: 0.8

QUERY: Indicate the recorded Binding of Control Serum Blood-Bank to Looped peptides value for this sequence: RGNTYSTAWLCALGK
RESULT: 0.4

QUERY: Indicate the recorded Binding of Control Serum Blood-Bank to Looped peptides value for this sequence: QHGKEELRFPRGQGV
RESULT: 0.7

QUERY: Indicate the recorded Binding of Control Serum Blood-Bank to Looped peptides value for this sequence: KPRQKRTATKQYNVT
RESULT: 0.4

QUERY: Indicate the recorded Binding of Control Serum Blood-Bank to Looped peptides value for this sequence: RARSVSPKLFIRQEE
RESULT: 0.7

QUERY: Indicate the recorded Binding of Control Serum Blood-Bank to Looped peptides value for this sequence: MCKYTQSTALQELLI
RESULT: 0.8

QUERY: Indicate the recorded Binding of Control Serum Blood-Bank to Looped peptides value for this sequence: DNNQNGGRNGARPKQ
RESULT: 0.7

QUERY: Indicate the recorded Binding of Control Serum Blood-Bank to Looped peptides value for this sequence: RGTTVLLKEPCPSGT
RESULT: 0.9

QUERY: Indicate the recorded Binding of Control Serum Blood-Bank to Looped peptides value for this sequence: KEGIVWVATEGALNT
RESULT: 0.6

QUERY: Indicate the recorded Binding of Control Serum Blood-Bank to Looped peptides value for this sequence: GHQTAAFRDVLVVLN
RESULT: 0.6

QUERY: Indicate the recorded Binding of Control Serum Blood-Bank to Looped peptides value for this sequence: TMSLYMAISPKFTTS
RESULT: 0.8

QUERY: Indicate the recorded Binding of Control Serum Blood-Bank to Looped peptides value for this sequence: RITFGGPTDSTDNNQ
RESULT: 0.6

QUERY: Indicate the recorded Binding of Control Serum Blood-Bank to Looped peptides value for this sequence: NSRNSTPGSSRGNSP
RESULT: 0.7

QUERY: Indicate the recorded Binding of Control Serum Blood-Bank to Looped peptides value for this sequence: QLRARSVSPKLFIRQ
RESULT: 0.9

QUERY: Indicate the recorded Binding of Control Serum Blood-Bank to Looped peptides value for this sequence: YSPLFLIVAALVFLI
RESULT: 0.4

QUERY: Indicate the recorded Binding of Control Serum Blood-Bank to Looped peptides value for this sequence: LALLLLDRLNQLESK
RESULT: 0.7

QUERY: Indicate the recorded Binding of Control Serum Blood-Bank to Looped peptides value for this sequence: TDTGIENATFFIFNK
RESULT: 0.8

QUERY: Indicate the recorded Binding of Control Serum Blood-Bank to Looped peptides value for this sequence: KGFQFICNLLLLFVT
RESULT: 0.5

QUERY: Indicate the recorded Binding of Control Serum Blood-Bank to Looped peptides value for this sequence: GKMKELSPRWYFYYL
RESULT: 0.8

QUERY: Indicate the recorded Binding of Control Serum Blood-Bank to Looped peptides value for this sequence: CRIIMRCWLCWKCKS
RESULT: 0.7

QUERY: Indicate the recorded Binding of Control Serum Blood-Bank to Looped peptides value for this sequence: SGKGQQQQGQTVTKK
RESULT: 0.6

QUERY: Indicate the recorded Binding of Control Serum Blood-Bank to Looped peptides value for this sequence: GTTLPKGFYAEGSRG
RESULT: 0.5

QUERY: Indicate the recorded Binding of Control Serum Blood-Bank to Looped peptides value for this sequence: GISTPKLKEDYQIGG
RESULT: 0.4

QUERY: Indicate the recorded Binding of Control Serum Blood-Bank to Looped peptides value for this sequence: TMVQTCTPNVTINCQ
RESULT: 0.9

QUERY: Indicate the recorded Binding of Control Serum Blood-Bank to Looped peptides value for this sequence: LYDANYFVCWHTHNY
RESULT: 0.7

QUERY: Indicate the recorded Binding of Control Serum Blood-Bank to Looped peptides value for this sequence: RVRGGDGKMKELSPR
RESULT: 0.7

QUERY: Indicate the recorded Binding of Control Serum Blood-Bank to Looped peptides value for this sequence: RFPRGQGVPINTNSG
RESULT: 0.6

QUERY: Indicate the recorded Binding of Control Serum Blood-Bank to Looped peptides value for this sequence: PYGANKEGIVWVATE
RESULT: 0.6

QUERY: Indicate the recorded Binding of Control Serum Blood-Bank to Looped peptides value for this sequence: GRRGPEQTQGNFGDQ
RESULT: 0.6

QUERY: Indicate the recorded Binding of Control Serum Blood-Bank to Looped peptides value for this sequence: FLQCINACRIIMRCW
RESULT: 0.6

QUERY: Indicate the recorded Binding of Control Serum Blood-Bank to Looped peptides value for this sequence: RSVSPKLFIRQEEVQ
RESULT: 0.6

QUERY: Indicate the recorded Binding of Control Serum Blood-Bank to Looped peptides value for this sequence: HITMTTVYHITVSQI
RESULT: 0.7

QUERY: Indicate the recorded Binding of Control Serum Blood-Bank to Looped peptides value for this sequence: NGPQSNQRSAPRITF
RESULT: 0.7

QUERY: Indicate the recorded Binding of Control Serum Blood-Bank to Looped peptides value for this sequence: MLHSSSLTSLLKTHR
RESULT: 0.6

QUERY: Indicate the recorded Binding of Control Serum Blood-Bank to Looped peptides value for this sequence: LYMAISPKFTTSLSL
RESULT: 0.7

QUERY: Indicate the recorded Binding of Control Serum Blood-Bank to Looped peptides value for this sequence: NCQDPAGGALIARCW
RESULT: 0.8

QUERY: Indicate the recorded Binding of Control Serum Blood-Bank to Looped peptides value for this sequence: NFGDQDLIRQGTDYK
RESULT: 0.5

QUERY: Indicate the recorded Binding of Control Serum Blood-Bank to Looped peptides value for this sequence: ALQELLIQQWIQFMM
RESULT: 0.7

QUERY: Indicate the recorded Binding of Control Serum Blood-Bank to Looped peptides value for this sequence: PQGTTLPKGFYAEGS
RESULT: 0.6

QUERY: Indicate the recorded Binding of Control Serum Blood-Bank to Looped peptides value for this sequence: ACLCKHKKVSTNLCT
RESULT: 0.2

QUERY: Indicate the recorded Binding of Control Serum Blood-Bank to Looped peptides value for this sequence: VRGTTVLLKEPCPSG
RESULT: 0.8

QUERY: Indicate the recorded Binding of Control Serum Blood-Bank to Looped peptides value for this sequence: NNNAATVLQLPQGTT
RESULT: 0.7

QUERY: Indicate the recorded Binding of Control Serum Blood-Bank to Looped peptides value for this sequence: IMRCWLCWKCKSKNP
RESULT: 0.4

QUERY: Indicate the recorded Binding of Control Serum Blood-Bank to Looped peptides value for this sequence: RSSSRSRGNSRNSTP
RESULT: 0.4

QUERY: Indicate the recorded Binding of Control Serum Blood-Bank to Looped peptides value for this sequence: THITMTTVYHITVSQ
RESULT: 0.6

QUERY: Indicate the recorded Binding of Control Serum Blood-Bank to Looped peptides value for this sequence: LVKDPPNVQIHTIDG
RESULT: 0.6

QUERY: Indicate the recorded Binding of Control Serum Blood-Bank to Looped peptides value for this sequence: HNYDYCIPYNSVTDT
RESULT: 0.7

QUERY: Indicate the recorded Binding of Control Serum Blood-Bank to Looped peptides value for this sequence: VIGVAFLAVFQSATK
RESULT: 0.5

QUERY: Indicate the recorded Binding of Control Serum Blood-Bank to Looped peptides value for this sequence: VVILRIGTQVLKTMS
RESULT: 0.3

QUERY: Indicate the recorded Binding of Control Serum Blood-Bank to Looped peptides value for this sequence: GNFGDQDLIRQGTDY
RESULT: 0.9

QUERY: Indicate the recorded Binding of Control Serum Blood-Bank to Looped peptides value for this sequence: PAMDPIYDEPTTTTS
RESULT: 0.5

QUERY: Indicate the recorded Binding of Control Serum Blood-Bank to Looped peptides value for this sequence: EGIVWVATEGALNTP
RESULT: 0.6

QUERY: Indicate the recorded Binding of Control Serum Blood-Bank to Looped peptides value for this sequence: LPYGANKEGIVWVAT
RESULT: 0.5

QUERY: Indicate the recorded Binding of Control Serum Blood-Bank to Looped peptides value for this sequence: HLLLVAAGMEAQFLY
RESULT: 0.6

QUERY: Indicate the recorded Binding of Control Serum Blood-Bank to Looped peptides value for this sequence: LESKVSGKGQQQQGQ
RESULT: 0.8

QUERY: Indicate the recorded Binding of Control Serum Blood-Bank to Looped peptides value for this sequence: GGALIARCWYLHEGH
RESULT: 0.6
